# experimental.system: human GlyT1c transporter (Homo sapiens, UniProt P48067)
# method.notes: Radioligand binding assays using recombinant CHO cell membranes expressing human GlyT1
# assay.setup: Ki, radioligand binding to human GlyT1c transporter-expressing CHO cell membranes
assay.endpoint: Ki

Some entries whose results are on file:
• CCCCCN(CCCCC)[C@H]1CN(S(=O)(=O)c2cn(C)cn2)C[C@@H]1C1OCCCO1 [Example 908] = ≤ 10 µM
• Cn1cnc(S(=O)(=O)N2CC3CCCN(C(=O)c4cccc(C(F)(F)F)c4Cl)C3C2)c1 (stereo not drawn) [Example 874] = ≤ 10 µM
• Cn1cnc(S(=O)(=O)N2CC3CCCCC3(NC(=O)c3cccc(C(F)(F)F)c3Cl)C2)c1 (stereo not drawn) [Example 870] = ≤ 0.1 µM

Each of the following entries comes with a recorded value; kindly state Ki for each.
1. Cc1cccc(CN[C@@H]2CN(S(=O)(=O)c3cn(C)cn3)C[C@H]2c2ccc(F)cc2)c1 (relative stereo) [Example 154]
2. Cn1cnc(S(=O)(=O)N2C[C@H](Nc3ccc(F)c(C(F)(F)F)c3)[C@@H](C3OCCCO3)C2)c1 [Example 912]
3. CCCCCN(C)[C@H]1CN(S(=O)(=O)c2cn(C)cn2)C[C@@H]1C1OCCCO1 [Example 907]
4. Cn1cnc(S(=O)(=O)N2C[C@@H](Nc3ccc(F)c(F)c3)[C@H](c3ncccc3F)C2)c1 (relative stereo) [Example 766]
5. Cn1cnc(S(=O)(=O)N2CC(Nc3ccc(F)c(C(F)(F)F)c3)C(c3ccc(F)cn3)C2)c1 (stereo not drawn) [Example 927]

≤ 0.1 µM
≤ 0.01 µM
≤ 1 µM
≤ 1 µM
≤ 0.01 µM

---

# experimental.system: human GlyT1c transporter (Homo sapiens, UniProt P48067)
# method.notes: Radioligand binding assays using recombinant CHO cell membranes expressing human GlyT1
# assay.setup: Ki, radioligand binding to human GlyT1c transporter-expressing CHO cell membranes
Can you tell me Ki for the items I'm about to list?

Each of the following entries comes with a recorded value; kindly state Ki for each.
1. Cn1cnc(S(=O)(=O)N2CC(Nc3cccc(OC(F)(F)F)c3)C(c3ccc(F)cn3)C2)c1 (stereo not shown)
2. Cn1cnc(S(=O)(=O)N2C[C@@H](c3ccccc3)[C@](CO)(NCc3ccc(C(F)(F)F)cc3)C2)c1 (relative stereo)
3. Cn1cnc(S(=O)(=O)N2C[C@@H]3c4ccccc4C[C@@]3(NCc3ccc(C(F)(F)F)cc3Cl)C2)c1 (relative stereo)
4. Cn1cnc(S(=O)(=O)N2C[C@H](Nc3cc(C(F)(F)F)c(Cl)cn3)[C@@H](C3OCCCO3)C2)c1
5. Cn1cnc(S(=O)(=O)N2C[C@H](Nc3cccc(OC(F)F)c3)[C@@H](C3OCCCO3)C2)c1

≤ 10 nM
≤ 10000 nM
≤ 100 nM
≤ 10 nM
≤ 10 nM

Each of the following entries comes with a recorded value; kindly state Ki for each.
1. Cn1cnc(S(=O)(=O)N2CC(Nc3cccc(OC(F)(F)F)c3)C(C3CCCN(C4CC4)C3)C2)c1 (stereo not shown)
2. CCS(=O)(=O)N1C[C@@H](NC(=O)c2ccc(C(F)(F)F)cc2)[C@H](c2ccccc2)C1 (relative stereo)

1. ≤ 100 nM
2. ≤ 10000 nM

---

# experimental.system: human GlyT1c transporter (Homo sapiens, UniProt P48067)
# method.notes: Radioligand binding assays using recombinant CHO cell membranes expressing human GlyT1
# assay.setup: Ki, radioligand binding to human GlyT1c transporter-expressing CHO cell membranes
assay.endpoint: Ki

Some entries whose results are on file:
• Cc1cc(N[C@H]2CN(S(=O)(=O)c3cn(C)cn3)C[C@@H]2C2OCCCO2)ccc1F [Example 923] = ≤ 100 nM
• Cn1cnc(S(=O)(=O)N2C[C@H](Nc3cccc(OCC(F)F)c3)[C@@H](C3OCCCO3)C2)c1 [Example 928] = ≤ 10 nM
• Cn1cnc(S(=O)(=O)N2C[C@H](c3ccc(F)cc3)[C@@H](N3C(=O)Cc4ccccc43)C2)c1 [Example 883] = ≤ 10000 nM
• Cn1cc(S(=O)(=O)N2C[C@H](Nc3cccc(OC(F)(F)F)c3)[C@@H](C3OCCCO3)C2)nn1 [Example 896] = ≤ 10 nM
• Cn1cnc(S(=O)(=O)N2CC3CCCCC3(NCc3ccc(C(F)(F)F)cc3Cl)C2)c1 (stereo not shown) [Example 869] = ≤ 10 nM

Each of the following entries comes with a recorded value; kindly state Ki for each.
1. Cn1cnc(S(=O)(=O)N2CC3CCCCC3(NCc3ccc(C(F)(F)F)cc3)C2)c1 (stereo not shown) [Example 884]
2. Cn1cnc(S(=O)(=O)N2C[C@@H](C(=O)c3cccc(F)c3)[C@H](c3ccc(F)cc3)C2)c1 (relative stereo) [Example 301]

["≤ 100 nM", "≤ 1000 nM"]

---

# experimental.system: human GlyT1c transporter (Homo sapiens, UniProt P48067)
# Sequence (P48067 1-706): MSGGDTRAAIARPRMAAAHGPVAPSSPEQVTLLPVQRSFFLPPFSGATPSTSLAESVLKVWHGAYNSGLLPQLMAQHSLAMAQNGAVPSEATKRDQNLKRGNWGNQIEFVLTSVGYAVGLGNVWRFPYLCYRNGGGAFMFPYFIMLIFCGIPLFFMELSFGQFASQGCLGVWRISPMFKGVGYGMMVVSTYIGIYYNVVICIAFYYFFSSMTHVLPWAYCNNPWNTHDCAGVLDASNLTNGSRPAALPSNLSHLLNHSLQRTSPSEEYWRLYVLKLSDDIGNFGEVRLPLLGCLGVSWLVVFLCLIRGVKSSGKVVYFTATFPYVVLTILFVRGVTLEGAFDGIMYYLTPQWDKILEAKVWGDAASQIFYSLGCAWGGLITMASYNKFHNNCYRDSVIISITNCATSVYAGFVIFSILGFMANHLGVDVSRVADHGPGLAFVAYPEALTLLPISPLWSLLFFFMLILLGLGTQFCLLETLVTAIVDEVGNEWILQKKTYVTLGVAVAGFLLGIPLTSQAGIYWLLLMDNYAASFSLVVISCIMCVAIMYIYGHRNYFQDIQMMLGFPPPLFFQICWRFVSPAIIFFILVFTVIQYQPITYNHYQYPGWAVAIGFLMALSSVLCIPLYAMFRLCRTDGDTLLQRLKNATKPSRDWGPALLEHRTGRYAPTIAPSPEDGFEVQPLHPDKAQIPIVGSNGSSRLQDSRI
# method.notes: Radioligand binding assays using recombinant CHO cell membranes expressing human GlyT1
# assay.setup: Ki, radioligand binding to human GlyT1c transporter-expressing CHO cell membranes
pKi: −log10 of the molar value.
assay.endpoint: pKi

Some entries whose results are on file:
- Cn1cnc(S(=O)(=O)N2C[C@H](Nc3ccc(F)c(OC(F)(F)F)c3)[C@@H](C3OCCCO3)C2)c1: ≥ 8.00
- C[C@@H]1C[C@@H](C)OC([C@H]2CN(S(=O)(=O)c3cn(C)cn3)C[C@@H]2Nc2cccc(OC(F)(F)F)c2)O1 (stereo partly shown): ≥ 7.00
- Cn1cnc(S(=O)(=O)N2C[C@H](Nc3cccc(OC(F)(F)F)c3)[C@@H](C3OCCO3)C2)c1: ≥ 6.00
- CCCCCCN[C@H]1CN(S(=O)(=O)c2cn(C)cn2)C[C@@H]1C1OCCCO1: ≥ 7.00
- Cn1cnc(S(=O)(=O)N2C[C@H](Nc3cccc(OC(F)(F)F)c3)[C@@H](C3OCC4(CC4)CO3)C2)c1: ≥ 8.00

Each of the following entries comes with a recorded value; kindly state pKi for each.
1. Cn1cnc(S(=O)(=O)N2C[C@H](Nc3ccc(F)c(Cl)c3)[C@@H](C3OCCCO3)C2)c1
2. Cn1cnc(S(=O)(=O)N2C[C@H](Nc3cccc(C(F)(F)F)c3)[C@@H](C3OCCCO3)C2)c1

1: ≥ 7.00; 2: ≥ 8.00

---

# experimental.system: human GlyT1c transporter (Homo sapiens, UniProt P48067)
# method.notes: Radioligand binding assays using recombinant CHO cell membranes expressing human GlyT1
# assay.setup: Ki, radioligand binding to human GlyT1c transporter-expressing CHO cell membranes
assay.endpoint: Ki

- Cn1cnc(S(=O)(=O)N2CC3CCCN(C(=O)c4ccc(C(F)(F)F)cc4Cl)C3C2)c1 (stereo not shown): ≤ 1000 nM
- Cn1cnc(S(=O)(=O)N2CC3c4ccccc4CCC3(Oc3cc(C(F)(F)F)ncn3)C2)c1 (stereo not shown): ≤ 1000 nM
- Cn1cnc(S(=O)(=O)N2C[C@@H](c3ccccc3)[C@](C)(NCc3ccc(C(F)(F)F)cc3Cl)C2)c1 (relative stereo): ≤ 100 nM

Each of the following entries comes with a recorded value; kindly state Ki for each.
1. Cn1cnc(S(=O)(=O)N2C[C@H](Nc3cccc(OCC(F)(F)F)c3)[C@@H](C3OCCCO3)C2)c1
2. Cn1cnc(S(=O)(=O)N2[C@@H]3CC[C@H]2[C@H](c2ccc(F)cc2)[C@H]3Nc2ccc(F)c(C(F)(F)F)c2)c1
3. CC(C)c1cccc(N[C@H]2CN(S(=O)(=O)c3cn(C)cn3)C[C@@H]2C2OCCCO2)c1
4. Cn1cc(S(=O)(=O)N2CC(Cc3cccc(C(F)(F)F)c3)C(C3OCCCO3)C2)nn1 (stereo not shown)

["≤ 100 nM", "≤ 10000 nM", "≤ 10 nM", "≤ 10000 nM"]
